tested on: Nuclear hormone receptor DAF-12 (Heterodera glycines), GAL4 fusion; test: H. glycines DAF-12 receptor agonists, primary screen, cell-based, luminescence, HEK293, GAL4 fusion, UAS-luciferase (AID 687014); conditions: HEK293 GAL4-hgDAF12 UAS-luciferase reporter, agonist luminescence; at 6.8 µM; hits give high values; normalized to butyrate control;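 further: 0% = DMSO wells and 100% = sodium butyrate wells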
The whole screen tested about 370,000 compounds, of which about 6,800 (1.8%) were called active. Only a selection was taken, and actives are over-represented in it overall.
VALUE KIND: activation

# MOLECULE, EXPERIMENTAL VALUE
rows = [
    ("CCCC[C@H](C(=O)N(CC)c1ccccc1)[C@@H](O)c1ccc2ccccc2c1", "-1.89% (inactive)"),
    ("O=C(CSc1nc2ccccc2nc1N1CCCCC1)N1CCN(S(=O)(=O)c2cccc([N+](=O)[O-])c2)CC1", "0.48% (inactive)"),
    ("Cc1ccc2c(c1)N(CC(=O)N1CCC(C)CC1)C(=O)c1cccnc1O2", "-1.52% (inactive)"),
    ("O=S1(=O)c2ccc(Br)cc2OC[C@H](Cc2ccccc2)N1Cc1cn(Cc2ccccc2)nn1", "-1.13% (inactive)"),
    ("O=C(CSC1CC(=O)N(CCc2ccccc2)C1=O)Nc1ccc(Cl)cc1 (centres undefined)", "3.22% (inactive)"),
    ("CS(=O)(=O)N(CC(=O)NC1CCCC1)Cc1ccc(F)cc1", "-0.56% (inactive)"),
    ("COc1ccc(Cn2cc(COC(=O)N(C)Cc3ccccc3)nn2)cc1", "2.67% (inactive)"),
    ("CC(C)C(C#CC1CC1)N(Cc1ccc2c(c1)OCO2)C(N)=NC(=O)/C=C/c1cccc(C(F)(F)F)c1 (centres undefined)", "0.47% (inactive)"),
    ("C#CCNC(=O)C[C@H]1C[C@@]2(C(=O)OC)C(=C[C@H](C(C)C)O[C@@H]2C2CC2)N(Cc2ccco2)C1=O", "0.97% (inactive)"),
]

----------
Recorded activation by entry
system: Nuclear hormone receptor DAF-12 (Heterodera glycines), GAL4 fusion; assay: H. glycines DAF-12 receptor agonists, primary screen, cell-based, luminescence, HEK293, GAL4 fusion, UAS-luciferase (AID 687014); details: HEK293 GAL4-hgDAF12 UAS-luciferase reporter, agonist luminescence; at 6.8 µM; hits give high values; normalized to butyrate control;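 further: 0% = DMSO wells and 100% = sodium butyrate wells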
In all, about 370,000 compounds went through this assay and about 6,800 (1.8%) were called active. The list comes from a sample in which actives are over-represented; it also holds close analogues and randomly drawn compounds.
VALUE KIND: activation (%)

# COMPOUND, ASSAY SYSTEM, UNIT NAME, EXPERIMENTAL VALUE
rows = [
    ("CCOC(=O)C1CSCCS(=O)(=O)N1Cc1ccc(Cl)cc1 (centres undefined)", "Nuclear hormone receptor DAF-12 (Heterodera glycines), GAL4 fusion", "%", -2.53),
    ("COC(=O)C1=C(C)N(Cc2ccccc2C(F)(F)F)C(=NCc2ccc(OC)cc2)NC1c1cccc(C(F)(F)F)c1 (centres undefined)", "Nuclear hormone receptor DAF-12 (Heterodera glycines), GAL4 fusion", "%", -1.71),
    ("COc1cccc(NC(=O)CSc2nccn(-c3ccc4c(c3)OCCO4)c2=O)c1", "Nuclear hormone receptor DAF-12 (Heterodera glycines), GAL4 fusion", "%", 0.16),
    ("CC(=O)OC[C@@H]1CN(Cc2ccccc2)C[C@H](n2cnc3c(NCc4ccco4)ncnc32)O1", "Nuclear hormone receptor DAF-12 (Heterodera glycines), GAL4 fusion", "%", 1.43),
    ("Cn1cc(S(=O)(=O)NC(c2ccccc2)c2ccccc2)c(=O)n(C)c1=O", "Nuclear hormone receptor DAF-12 (Heterodera glycines), GAL4 fusion", "%", -1.46),
    ("C[C@H](O)[C@@H]1C(=O)N2CCc3c([nH]c4c(-c5ccc6c(c5)OCO6)cccc34)[C@@H]2C[C@@H]1N(C)C(=O)c1ccco1", "Nuclear hormone receptor DAF-12 (Heterodera glycines), GAL4 fusion", "%", 2.82),
    ("Nc1cccc2c1C(=O)N(Cc1nnc(-c3ccccc3Br)o1)C2=O", "Nuclear hormone receptor DAF-12 (Heterodera glycines), GAL4 fusion", "%", -2.29),
    ("CCCCCCCCN1C(=O)[C@@H](CC(=O)NCc2ccccc2)C[C@@]2(C(=O)OC)C1=C[C@H](C(C)(C)C)O[C@@H]2C", "Nuclear hormone receptor DAF-12 (Heterodera glycines), GAL4 fusion", "%", -1.53),
    ("CC(=O)Nc1ccc(NC(=O)CSc2nnnn2C2CCCCC2)cc1", "Nuclear hormone receptor DAF-12 (Heterodera glycines), GAL4 fusion", "%", 0.66),
    ("CCCCCN1CCCCC(NC(=O)C(C)CCC)C1=O (centres undefined)", "Nuclear hormone receptor DAF-12 (Heterodera glycines), GAL4 fusion", "%", 2.68),
    ("CCOC(=O)N1CCN(C(=O)C[C@@H]2C(=O)N(CCc3ccc(Cl)cc3)C3=CCCC[C@]32C(=O)OCC)CC1", "Nuclear hormone receptor DAF-12 (Heterodera glycines), GAL4 fusion", "%", -0.14),
    ("Cc1cc(N2CCN(C(=O)OC(C)(C)C)C[C@H]2C)ccc1N1CCN(Cc2ccccc2)[C@H](C)C1", "Nuclear hormone receptor DAF-12 (Heterodera glycines), GAL4 fusion", "%", -0.97),
    ("O=C(COC(=O)c1ccc(F)cc1)NCCCc1ccccc1", "Nuclear hormone receptor DAF-12 (Heterodera glycines), GAL4 fusion", "%", -2.09),
    ("Cc1ccc(CSc2nnc(SCC(=O)NN=Cc3cc(Br)ccc3F)s2)cc1", "Nuclear hormone receptor DAF-12 (Heterodera glycines), GAL4 fusion", "%", 6.25),
]
